Recorded values, source the supplement of paper PMC12137928.

Tested on: HCT116
test-parameters: 72 h; ICRF193 200 nM
Counter-ions that a name gives are not always drawn.
metric-name: IC50 cell viability

Below, each entry is followed by its recorded IC50 cell viability result.
compound	IC50 cell viability
C#C[C@]1(O)CC[C@H]2[C@@H]3CCc4cc(OC5CCCC5)ccc4[C@H]3CC[C@@]21C [Quinestrol]	23.1 µM
C[C@]12CC[C@@H]3c4ccc(O)cc4CC[C@H]3[C@@H]1C[C@@H](O)[C@@H]2O [Estriol]	> 45.8 µM
CC(C)(C)c1cc(C(C)(C)C)c(NC(=O)c2c[nH]c3ccccc3c2=O)cc1O [Ivacaftor]	18.3 µM

// field: IC50 cell viability; key: O=C(O)CCCC[C@@H]1SC[C@@H]2NC(=O)N[C@@H]21 [Biotin] ; value = > 45.8 µM

Form field IC50 cell viability, entry CC[C@@]1([C@@H]2O[C@@H]([C@H]3O[C@@](O)(CO)[C@H](C)C[C@@H]3C)C[C@@H]2C)CC[C@H]([C@]2(C)CC[C@]3(C[C@H](O)[C@@H](C)[C@@H]([C@@H](C)[C@@H](OC)[C@H](C)C(=O)O)O3)O2)O1 [Monensin sodium salt] : 3.18 µM

So, O=C1C(CC[S+]([O-])c2ccccc2)C(=O)N(c2ccccc2)N1c1ccccc1 (configuration not stated) [SULFINPYRAZONE] ? Its IC50 cell viability was > 45.8 µM

IC50 cell viability for O=C1c2c(O)cccc2C([C@@H]2O[C@H](CO)[C@@H](O)[C@H](O)[C@H]2O)c2cc(CO)cc(O)c21 (some centres not stated) [ALOIN] is > 45.8 µM

Just so you know, measured IC50 cell viability for C[N+](C)(C)CCCCCCCCCC[N+](C)(C)C [Decamethonium bromide] came out at > 45.8 µM
